Source of measurements: PubChem BioAssay

Field: growth inhibition. Provide a value for each of the compounds that follow.
- METHOD SUMMARY: inhibition of 3D7 malaria parasite growth – strain 3D7 (AID 2306);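 further: 0% = DMSO wells and 100% = chloroquine plus artemisinin control wells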
- ASSAY SETUP: P. falciparum 3D7 erythrocytic growth, LDH absorbance, 72 h; at 2 µM; active compounds read high
Numbers only, in %.

- Clc1ccccc1CCNCC1CCN(CC2CCCCC2)CC1: 97
- COc1ccc(-c2ccc(NC(=O)c3ccc(C#N)cc3)cc2)cc1CN1CCN(C)CC1: 93
- Cc1cc(NCCC(=O)NCCOc2ccccc2)nc(Nc2ccccc2)n1: 94
- CC1(C)[C@H]2CC[C@@H](CNc3nc(NCCc4cnc[nH]4)nc(Nc4ccc5c(c4)OCO5)n3)[C@@H]1C2: 101
- Cc1ccc(CNC(=O)[C@H](Cc2ccccc2)Nc2ccnc(NCC3CCCCC3)n2)cc1: 92
- Cc1cc(C(=O)CN2C(=O)NC3(CCOc4ccccc43)C2=O)c(C)n1Cc1ccc(F)cc1 (stereo not given): 95

List reported growth inhibition for each of these compounds:
1. CCCCC(=O)N(CCOC)Cc1ccc(-c2ccc(CNCCC)cn2)cc1
2. Cc1sc(NC(=O)Cc2cccc(C(F)(F)F)c2)nc1-c1cccc(Cl)c1
3. O=C(Nc1ccc(Cl)cc1)Nc1cccc(-c2cc(CNCCc3ccccc3)oc2-c2ccncc2)c1
4. COc1ccc(-c2nc(NCc3ccccc3)c3cc(OC)c(OC)cc3n2)cc1

Reply:
99
101
101
101
